Recorded values, source the supplement of paper PMC10567573.

B1: ZNF449 (parent)
chain: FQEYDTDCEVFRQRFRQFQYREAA

# Variants of: B1
# assay-notes: protein stability index of a GFP-peptide fusion (GPS, HEK-293T) (PSI 1-6); higher = more stable;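 also: lentivirally expressed fusions sorted by FACS into six bins by GFP to DsRed ratio, PSI derived from sequencing read proportions per bin multiplied by bin number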
# conditions: c terminus: a fixed tail appended
protein stability index values, listed per item
Respond using a number only.

Please review the entries below; each comes with its answer.
biopolymer-sequence: FQEYDTDCEVCRQRFRQFQYREAA [F11C]
experimental-value: 2.99
//
biopolymer-sequence: FQEYGTDCEVFRQRFRQFQYREAA [D5G]
experimental-value: 1.78
//
biopolymer-sequence: FQEYDTDCEVFRQRFRQFQRREAA [Y20R]
experimental-value: 2.88
//
biopolymer-sequence: FQEYDTDCEVFRQRFRQFQHREAA [Y20H]
experimental-value: 3.27
//
biopolymer-sequence: FQEYDTDCEVFRQRFRQFSYREAA [Q19S]
experimental-value: 2.11
//
biopolymer-sequence: FQEYNTDCEVFRQRFRQFQYREAA [D5N]
experimental-value: 2.68
//
biopolymer-sequence: FQEYDTDCEVFRQAFRQFQYREAA [R14A]
experimental-value: 2.83
//
biopolymer-sequence: FQEYDTDCEVFRQRYRQFQYREAA [F15Y]
experimental-value: 2.17

Short answer for FQEYDTDCEVFRQRFIQFQYREAA [R16I] : protein stability index was 2.31

Short answer for FQEYDTDCEVFRQRFRSFQYREAA [Q17S] : protein stability index was 2.39

Short answer for IQEYDTDCEVFRQRFRQFQYREAA [F1I] : protein stability index was 2.81

Short answer for FQHYDTDCEVFRQRFRQFQYREAA [E3H] : protein stability index was 2.11
